All figures here come from patent US6352834B1.

- method description: Cell counts and viability of LNCaP cells after culture with iron chelator
- Assay type: cell-based
- condition notes: human, LNCaP cells, Desferal 1.0 ug/ml
reported endpoint: viability at 72 h, 1 ug/ml (%)

                                        mol  unit_of_measurement  reported
0  CC(=O)N(O)CCCCCNC(=O)CCC(=O)N(O)CCCCCNC(=O)CCC(=O)N(O)CCCCCN                    %      92.2

----------
- method description: Cell counts and viability of LNCaP cells after culture with iron chelator
- Format: cell-based
- condition notes: human, LNCaP cells, Desferal 4.0 ug/ml
reported endpoint: viability at 72 h, 4 ug/ml (%)

>>> df
                                   compound  reported
0  CC(=O)N(O)CCCCCNC(=O)CCC(=O)N(O)CCCCCNC(=O)CCC(=O)N(O)CCCCCN [Desferal, Deferoxamine]      85.4
